Target: T1, Human CD19-his protein (human, UniProt P15391 20-291)
T1 construct: bought protein; also called recombinant human CD19-His; CD19 full-length protein; not shown: His tag
T1 sequence (looked up): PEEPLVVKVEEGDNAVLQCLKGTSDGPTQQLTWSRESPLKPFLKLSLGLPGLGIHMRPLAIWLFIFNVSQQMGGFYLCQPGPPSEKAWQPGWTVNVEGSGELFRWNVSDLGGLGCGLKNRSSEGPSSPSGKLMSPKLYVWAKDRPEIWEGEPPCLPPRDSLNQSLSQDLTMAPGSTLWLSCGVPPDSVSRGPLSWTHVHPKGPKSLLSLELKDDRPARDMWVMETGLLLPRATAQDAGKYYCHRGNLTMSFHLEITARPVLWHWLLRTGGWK
Assay: SPR Biacore, Ab captured on Protein A, CD19-His analyte
pKd: −log10 of the molar value.
parameter: pKd

binder: F1-mab003 (antibody, human IgG1, V domains shown, human-murine chimeric antibody, human IgG1 constant) VH: EVQLQQSGPELVKPGASVKMSCKASGYTFTDYVMHWVRQTPGQGLEWIGYFNPYNDGTNYNEKFKVKATLTSDKSSTTAYMELSSLTSEDSAVYYCARGVYYYGRDFDYWGQGTTLTVSS VL: DVVLTQTPLSLPVSLGDQASISCRSSQSLENSNGNSYLNWYLQKPGQSPQLLIYRVSNRFSGVLDRFSGSGSGTDFTLKISRVEAEDLGVYFCLQITHVPWTFGGGTKLEIK
observed.result: 9.61

binder: F4.107.12 (antibody, human IgG1, V domains shown, human-murine chimeric antibody, human IgG1 constant) VH: EVQLQQSGPELVKPGASVKMSCKASGYTFTSYVLHWVRQKPGQGLEWIGYFNPYNDGTEYNEKFKGKAILTSDKSSSTAYMELNSLTSEDSAVYYCVGGTYYYGSSYPFAYWGQGTLVTVST VL: DVVMTQISLSLPVSLGDQASISCRSSQSLIHSNGNTYLQWYLQKPGQSPKLLIYKVSNRLSGVPDRFSGSGSGTDFTLKISRVEAEDLGVYFCSQSTHVPYTFGGGTKLEIK
observed.result: 8.96

binder: F5.3.6 (antibody, human IgG1, V domains shown, human-murine chimeric antibody, human IgG1 constant) VH: DVQLQESGPGLVKPSQSQSLTCSVTGYSITSGYYWNWIRQFPGNKLEWMGYISYDGSNNYNPSLKNRISITRDTSKNQFFLKLNSVTTEDTVTYYCARAPLTGDRYWYFDVWGTGTTVTVSS VL: DIVLTQSPASLAVSLGQRATISCRASQSVSTSSYSYMHWYQQKPGQTPKLLIKYASNLKSGVPARFSGSGSGTDFTLNIHPVEEEDTATYYCQHSWEIPPTFGGGTKLEIK
observed.result: 8.46

binder: F4.276.12 (antibody, human IgG1, V domains shown, human-murine chimeric antibody, human IgG1 constant) VH: EIQLQQSGPELVKPGASVKVSCKASGYAFSAYNMYWVKQSHGKSLEWIGYIDPYNGGTNYNQKFKGKATLTVDKSSSTAYMHLNSLTSEDSAVYYCARDGYEVTYWGQGTLVTVSA VL: QIVLTQSPALMSASLGEEITLTCSASSSVTYMHWSQQKSGTSPRLLIYSTSNLASGVPSRFSGSGSGTFYSLTISSVEAEDAADYYCHQWSSYPWTFGGGTKLEIK
observed.result: 8.48

binder: F5.11.2 (antibody, human IgG1, V domains shown, human-murine chimeric antibody, human IgG1 constant) VH: EVQLVESGGDLVKPGGSLKLSCAASGFTFSSYGMSWVRQTPDKRLEWVATISHGGSYTHYPDSVKGRFTISRDNAKNTLYLQMNSLKSEDTAMYYCVRLPITTVEAPYFFDYWGQGTTLTVSS VL: DIQMTQTTSSLSASLGDRVTISCRASQDIRNYLNWYQQKPDGTVKLLIYYTSILHSGVPSRFSGSGSGTDYSLTINNLEQEDVATYFCQQGNTLYTFGGGTEVELR
observed.result: 8.77
